Data provenance: ChEMBL document CHEMBL4715736

System: RPMI-8226
Assay: Growth inhibition of human RPMI-8226 cells assessed as cell growth at 100 uM incubated for 48 hrs by sulforhodamine B assay relative to control
Format: functional
Conditions: read-out: Activity
observedProperty: growth at 100 µM (%)
Reply with just the number (in %).

compoundStructure: COc1cccc(NC(=O)c2sc3nc4c(cc3c2N)CN(Cc2ccccc2)CC4)c1
recordedMeasurement: 27

compoundStructure: CN1CCc2nc3sc(C(N)=O)c(N)c3c(-c3cccs3)c2C1
recordedMeasurement: 1

compoundStructure: CCc1cccc(C)c1NC(=O)c1sc2nc3c(cc2c1N)C(=O)CCC3
recordedMeasurement: -39

compoundStructure: Cc1cc(C)c(NC(=O)c2sc3nc4c(cc3c2N)CN(Cc2ccccc2)CC4)c(C)c1
recordedMeasurement: -11

I have this compound here, CCc1ccccc1NC(=O)c1sc2nc3c(cc2c1N)C(=O)CCC3 , and I need its recorded growth at 100 µM.
-5

// same read-out, input: Cc1cccc(NC(=O)c2sc3nc4c(cc3c2N)C(=O)CCC4)c1
21

// same read-out, input: Nc1c(C(=O)Nc2ccccc2)sc2nc3c(cc12)CN(Cc1ccccc1)CC3
42

// same read-out, input: Cc1ccc(NC(=O)c2sc3nc4c(cc3c2N)C(=O)CCC4)cc1C
-9

----------
System: SR
Experiment: Growth inhibition of human SR cells assessed as cell growth at 0.1 uM incubated for 48 hrs by sulforhodamine B assay relative to control
Type: functional
Settings: read-out: Activity
Let's look at some compounds and their measured growth at 0.1 µM.
Reply with just the number (in %).

Would you please look over these solved cases?
compoundStructure: Cc1ccc(NC(=O)c2sc3nc4c(cc3c2N)C(=O)CCC4)cc1C
growth at 0.1 µM [%]: 108
//
compoundStructure: CN1CCc2nc3sc(C(N)=O)c(N)c3c(-c3cccs3)c2C1
growth at 0.1 µM [%]: 96
//
compoundStructure: CCc1ccccc1NC(=O)c1sc2nc3c(cc2c1N)C(=O)CCC3
growth at 0.1 µM [%]: 96

I have this compound here, Cc1cc(C)c(NC(=O)c2sc3nc4c(cc3c2N)CN(Cc2ccccc2)CC4)c(C)c1 , and I need its recorded growth at 0.1 µM.
103

// same read-out, input: Nc1c(C(=O)Nc2ccccc2)sc2nc3c(cc12)CN(Cc1ccccc1)CC3
91

// same read-out, input: CCc1cccc(C)c1NC(=O)c1sc2nc3c(cc2c1N)C(=O)CCC3
101

// same read-out, input: COc1cccc(NC(=O)c2sc3nc4c(cc3c2N)CN(Cc2ccccc2)CC4)c1
99

----------
System: MDA-MB-468
Experiment: Growth inhibition of human MDA-MB-468 cells assessed as cell growth at 0.01 uM incubated for 48 hrs by sulforhodamine B assay relative to control
Format: functional
Conditions: read-out: Activity
Let's look at some compounds and their measured growth at 0.01 µM.
Reply with just the number (in %).

Would you please look over these solved cases?
compoundStructure: Nc1c(C(=O)Nc2ccccc2)sc2nc3c(cc12)CN(Cc1ccccc1)CC3
experimentalSystem: MDA-MB-468
growth at 0.01 µM / %: 96

compoundStructure: Cc1ccc(NC(=O)c2sc3nc4c(cc3c2N)C(=O)CCC4)cc1C
experimentalSystem: MDA-MB-468
growth at 0.01 µM / %: 95

compoundStructure: Cc1cc(C)c(NC(=O)c2sc3nc4c(cc3c2N)CN(Cc2ccccc2)CC4)c(C)c1
experimentalSystem: MDA-MB-468
growth at 0.01 µM / %: 99

compoundStructure: COc1cccc(NC(=O)c2sc3nc4c(cc3c2N)CN(Cc2ccccc2)CC4)c1
experimentalSystem: MDA-MB-468
growth at 0.01 µM / %: 92

compoundStructure: CN1CCc2nc3sc(C(N)=O)c(N)c3c(-c3cccs3)c2C1
experimentalSystem: MDA-MB-468
growth at 0.01 µM / %: 86

compoundStructure: CCc1cccc(C)c1NC(=O)c1sc2nc3c(cc2c1N)C(=O)CCC3
experimentalSystem: MDA-MB-468
growth at 0.01 µM / %: 91

compoundStructure: Cc1cccc(NC(=O)c2sc3nc4c(cc3c2N)C(=O)CCC4)c1
experimentalSystem: MDA-MB-468
growth at 0.01 µM / %: 93

Here is the next item to consider.
Which measured growth at 0.01 µM belongs to CCc1ccccc1NC(=O)c1sc2nc3c(cc2c1N)C(=O)CCC3 , tested on MDA-MB-468?
91

----------
Let's look at some molecules and their measured growth at 10 µM.
System: NCI-H322M
Assay: Growth inhibition of human NCI-H322M cells assessed as cell growth at 10 uM incubated for 48 hrs by sulforhodamine B assay relative to control
Format: functional
Settings: read-out: Activity
Reply with just the number (in %).

compoundStructure: COc1cccc(NC(=O)c2sc3nc4c(cc3c2N)CN(Cc2ccccc2)CC4)c1
measurementUnit: %
recordedMeasurement: 71

compoundStructure: COc1ccc(-c2ccn(S(=O)(=O)c3ccc(C)cc3)n2)cc1
measurementUnit: %
recordedMeasurement: 96.7

compoundStructure: Cc1ccc(S(=O)(=O)n2ccc(-c3ccc(OCCCF)cc3)n2)cc1
measurementUnit: %
recordedMeasurement: 93.7

compoundStructure: COc1ccc(S(=O)(=O)n2ccc(-c3ccc4c(c3)CCC(C)(C)O4)n2)cc1OC
measurementUnit: %
recordedMeasurement: 89.5

compoundStructure: CC(=O)Nc1ccc(S(=O)(=O)n2ccc(-c3ccc4c(c3)CCC(C)(C)O4)n2)cc1
measurementUnit: %
recordedMeasurement: 89

compoundStructure: Cc1cc(C)c(NC(=O)c2sc3nc4c(cc3c2N)CN(Cc2ccccc2)CC4)c(C)c1
measurementUnit: %
recordedMeasurement: 47

Here is the next item to consider.
I have this molecule here, CC1(C)CCc2cc(-c3ccn(S(=O)(=O)c4ccc(C(C)(C)C)cc4)n3)ccc2O1 , and I need its recorded growth at 10 µM.
95.6

----------
Test system: HOP-92
Assay: Growth inhibition of human HOP-92 cells assessed as cell growth at 10 uM incubated for 48 hrs by sulforhodamine B assay relative to control
Format: functional
Settings: read-out: Activity
Let's look at some molecules and their measured growth at 10 µM.
Reply with just the number (in %).

Would you please look over these solved cases?
compoundStructure: Nc1c(C(=O)N(c2ccccc2)c2ccccc2)sc2nc3c(cc12)C(=O)CCC3
recordedMeasurement: 103

compoundStructure: COc1ccc(-c2ccn(S(=O)(=O)c3ccc(OC)cc3)n2)cc1
recordedMeasurement: 38.8

compoundStructure: COc1ccc(-c2ccn(S(=O)(=O)c3ccc(C)cc3)n2)cc1
recordedMeasurement: 79.9

compoundStructure: Cc1cccc(NC(=O)c2sc3nc4c(cc3c2N)C(=O)CCC4)c1
recordedMeasurement: 35

compoundStructure: CCc1ccccc1NC(=O)c1sc2nc3c(cc2c1N)C(=O)CCC3
recordedMeasurement: 54

compoundStructure: Nc1c(C(=O)Nc2ccccc2)sc2nc3c(cc12)CN(Cc1ccccc1)CC3
recordedMeasurement: 13

compoundStructure: CN1CCc2nc3sc(C(N)=O)c(N)c3c(-c3cccs3)c2C1
recordedMeasurement: -4

compoundStructure: Cc1cc(C)cc(S(=O)(=O)n2ccc(-c3ccc4c(c3)CCC(C)(C)O4)n2)c1
recordedMeasurement: 78.1

compoundStructure: Cc1cccc(NC(=O)c2sc3nc4c(cc3c2N)CN(Cc2ccccc2)CC4)c1
recordedMeasurement: 100

compoundStructure: CC1(C)CCc2cc(-c3ccn(S(=O)(=O)c4ccc(Cl)cc4Cl)n3)ccc2O1
recordedMeasurement: 57.1

Here is the next item to consider.
Which measured growth at 10 µM belongs to CC(=O)Nc1ccc(S(=O)(=O)n2ccc(-c3ccc4c(c3)CCC(C)(C)O4)n2)cc1 , tested on HOP-92?
69.8

----------
Let's look at some molecules and their measured growth at 0.01 µM.
Test system: SK-MEL-2
Test: Growth inhibition of human SK-MEL-2 cells assessed as cell growth at 0.01 uM incubated for 48 hrs by sulforhodamine B assay relative to control
Format: functional
Details: read-out: Activity
Reply with just the number (in %).

Would you please look over these solved cases?
compoundStructure: COc1cccc(NC(=O)c2sc3nc4c(cc3c2N)CN(Cc2ccccc2)CC4)c1
growth at 0.01 µM [%]: 106

compoundStructure: Cc1cc(C)c(NC(=O)c2sc3nc4c(cc3c2N)CN(Cc2ccccc2)CC4)c(C)c1
growth at 0.01 µM [%]: 108

I have this molecule here, CN1CCc2nc3sc(C(N)=O)c(N)c3c(-c3cccs3)c2C1 , and I need its recorded growth at 0.01 µM.
107

----------
Test system: SF-295
Assay: Growth inhibition of human SF-295 cells incubated for 48 hrs by sulforhodamine B assay
Format: functional
Let's look at some molecules and their measured TGI.

compoundStructure: CCc1ccccc1NC(=O)c1sc2nc3c(cc2c1N)C(=O)CCC3
recordedMeasurement: ≥ 100 µM

Which measured TGI belongs to COc1cccc(NC(=O)c2sc3nc4c(cc3c2N)CN(Cc2ccccc2)CC4)c1 , tested on SF-295?
19.4 µM

// same read-out, input: CN1CCc2nc3sc(C(N)=O)c(N)c3c(-c3cccs3)c2C1
> 100 µM
